- study-system: AF/FA GTP sensor (mAmetrine 1.1 and E. coli FeoB-cpYFP fusion) 11A variant Triple, GNAGKST (SEQ ID NO: 10) (Escherichia coli, UniProt P33650, P12G/S14A/T17S)
- Construct: modified pET32, His-tag/NiNTA, E. coli BL21(DE3)
- procedure-text: GTP binding analysis, fluorescence titration, sensor Triple
- Experimental: Expression and purification: The FA/AF11A protein construct in a modified pET32 vector was used to transform BL21 (DE3) cells. Protein expression was induced with IPTG at a final concentration of 1 mM when the cell OD600 reached 0.6-0.8. Cells were grown for a further 12-14 hrs at 30° C. overnight. […] Protein concentration was determined with a BCA assay-kit from Invitrogen using bovine serum albumin for the calibration curve. […]
measurement-label: Kd (µM)
Just the number please, in µM, no unit attached.

Check the records and state Kd for Nc1nc2c(ncn2[C@@H]2O[C@H](COP(=O)(O)OP(=O)(O)OP(=O)(O)O)[C@@H](O)[C@H]2O)c(=O)[nH]1 [GTP, guanosine triphosphate]
517

###

- study-system: AF/FA GTP sensor (mAmetrine 1.1 and E. coli FeoB-cpYFP fusion) 11A variant 1214, P12G+S14A, GNAGKTT (SEQ ID NO: 8) (Escherichia coli, UniProt P33650, P12G/S14A)
- Construct: modified pET32, His-tag/NiNTA, E. coli BL21(DE3)
- procedure-text: GTP binding analysis, fluorescence titration, sensor 1214
- Experimental: Expression and purification: The FA/AF11A protein construct in a modified pET32 vector was used to transform BL21 (DE3) cells. Protein expression was induced with IPTG at a final concentration of 1 mM when the cell OD600 reached 0.6-0.8. Cells were grown for a further 12-14 hrs at 30° C. overnight. […] Protein concentration was determined with a BCA assay-kit from Invitrogen using bovine serum albumin for the calibration curve. […]
measurement-label: Kd (µM)
Just the number please, in µM, no unit attached.

Check the records and state Kd for Nc1nc2c(ncn2[C@@H]2O[C@H](COP(=O)(O)OP(=O)(O)OP(=O)(O)O)[C@@H](O)[C@H]2O)c(=O)[nH]1 [GTP, guanosine triphosphate]
177

Okay, next one:
Check the records and state Kd for Nc1nc2c(ncn2[C@@H]2O[C@H](COP(=O)(O)OP(=O)(O)O)[C@@H](O)[C@H]2O)c(=O)[nH]1 [GDP]
525
